Entries annotated with measured cell viability
Tested on: SEM cells
Test: cell viability relative to DMSO control; higher = less cytotoxic
Conditions: RPMI 5 mM glucose + 10% FBS; 48 h; 5.12 µM
Please state the figure in %; there is no need to write the unit.

Reference set (3 entries):
NC(=O)c1cccc2nc(-c3ccc([C@H]4CCCN4)cc3F)[nH]c12: 45.9
[O-]C(=O)C1=C(C(=C(Cl)C(=C1Cl)Cl)Cl)C/2=C/3\C=C(I)/C(=O)/C(=C3OC4=C2C=C(I)C(=C4I)[O-])I: 114
N#Cc1ccnc(Nc2cc(C3CCN(C4COC4)CC3)cc(N3CCC(F)(F)C3)n2)c1: 100

Next up:
Sample "CCC(=C/[C@H](C)C/C=C/C(C)=C/[C@@H](C)C(=O)[C@@H](C)[C@H](O)[C@@H](C)C/C(C)=C/C(=O)O)/C=C/[C@@H]1OC(=O)C=C[C@@H]1C" ; cell viability observed: 6.23

Ref: the supplement of paper PMC11451515
